Target: T1, human neuropeptide Y2 receptor (human, UniProt P49146 1-381)
T1 sequence (looked up): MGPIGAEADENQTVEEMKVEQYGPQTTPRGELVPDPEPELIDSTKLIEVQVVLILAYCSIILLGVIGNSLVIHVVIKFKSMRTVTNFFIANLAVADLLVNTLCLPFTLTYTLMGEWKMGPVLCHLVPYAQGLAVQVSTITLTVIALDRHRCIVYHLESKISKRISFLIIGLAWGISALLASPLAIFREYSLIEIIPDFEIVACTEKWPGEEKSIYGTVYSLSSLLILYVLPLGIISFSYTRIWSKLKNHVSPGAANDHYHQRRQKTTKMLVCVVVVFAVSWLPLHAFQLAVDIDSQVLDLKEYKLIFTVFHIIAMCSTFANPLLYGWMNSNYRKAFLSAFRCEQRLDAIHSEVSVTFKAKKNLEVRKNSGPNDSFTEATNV
Experiment: cell-based or functional assay
*1 amine or outer side, *2 acyl side, *3 side chain or, on linkers, in order; H or OH if unused. Where no end group is shown, it is not given here. Side-chain parts run from the residue outwards. [ ]: non-standard residue; d: D form. The star is where a group is joined. C20 diacid = O=C(O)CCCCCCCCCCCCCCCCCCC(=O)*; C18 diacid = O=C(O)CCCCCCCCCCCCCCCCC(=O)*; γGlu = O=C(O)[C@H](CCC(=O)[*:2])N[*:1]; εLys = N[C@@H](CCCCN[*:1])C(=O)[*:2]; AEEA = NCCOCCOCC(=O)O; Aib = CC(C)(N)C(=O)O; Ahx = NCCCCCC(=O)O
Endpoint name: EC50, CreLuc reporter, 100% hP (nM)
Return type: number; implicit unit nM.

input: Retrieve EC50, CreLuc reporter, 100% hP measured for YXEGTFTSDYSIXLEEQAQXAFVRHLINKXTRQRY (Aib at 2, 13, 20, 30; Lys29 epsilon-amino acylated with C18DA-gGlu-gGlu-gGlu-gGlu-gGlu; C-terminal amide) [Compound 75] and print it.
output: 904

input: Retrieve EC50, CreLuc reporter, 100% hP measured for Y[Aib]EGTFTSDYSI[Aib]LEKQAQ[Aib]EFVRHLINK([γGlu-γGlu-γGlu-γGlu-C18 diacid])[Aib]TRQRY-NH2 [Compound 79] and print it.
output: 99.1

input: Retrieve EC50, CreLuc reporter, 100% hP measured for Y[Aib]EGTFTSDYSI[Aib]LEKQAQ[Aib]AFVRHLINK([γGlu-γGlu-εLys-γGlu-γGlu-γGlu-γGlu-C20 diacid])[Aib]TRQRY-NH2 [Compound 52] and print it.
output: 152

input: Retrieve EC50, CreLuc reporter, 100% hP measured for Y[Aib]EGTFTSDYSI[Aib]LEKQAQ[Aib]AFVRHLINK([AEEA-γGlu-γGlu-γGlu-γGlu-γGlu-γGlu-C18 diacid])[Aib]TRQRY-NH2 [Compound 47] and print it.
output: 72.6

input: Retrieve EC50, CreLuc reporter, 100% hP measured for YXEGTFTSDYSIXLEKQAEXAFVRHLINKXTRQRY (Aib at 2, 13, 20, 30; Lys29 epsilon-amino acylated with C18DA-gGlu-gGlu-gGlu-gGlu-gGlu-gGlu-eLys; C-terminal amide) [Compound 10] and print it.
output: 28.2

input: Retrieve EC50, CreLuc reporter, 100% hP measured for Y[Aib]EGTFTSDYSI[Aib]LEKQAE[Aib]AFVRHLINK([εLys-εLys-γGlu-γGlu-γGlu-γGlu-γGlu-γGlu-C20 diacid])[Aib]TRQRY-NH2 [Compound 82] and print it.
output: 75.1

input: Retrieve EC50, CreLuc reporter, 100% hP measured for Y[Aib]EGTFTSDYSI[Aib]LEKQAQ[Aib]AFVRHLINK([γGlu-γGlu-εLys-γGlu-γGlu-γGlu-γGlu-C18 diacid])[Aib]TRQRY-NH2 [Compound 34] and print it.
output: 28

input: Retrieve EC50, CreLuc reporter, 100% hP measured for YXEGTFTSDYSIXLEKQAQAAFVRHLINKXTRQRY (Aib at 2, 13, 30; Lys29 epsilon-amino acylated with C18DA-gGlu-gGlu-gGlu-gGlu-gGlu-gGlu-eLys; C-terminal amide) [Compound 61] and print it.
output: 42.1

input: Retrieve EC50, CreLuc reporter, 100% hP measured for YXEGAFTSDYSIXLEKQAQXAFVRHLINKXTRQRY (Aib at 2, 13, 20, 30; Lys29 epsilon-amino acylated with C18DA-gGlu-gGlu-gGlu-gGlu-gGlu-gGlu-eLys; C-terminal amide) [Compound 85] and print it.
output: 16.2

input: Retrieve EC50, CreLuc reporter, 100% hP measured for YXEGTFTSDYSIXLEKQAQXEFVRHLINKLTRQRY (Aib at 2, 13, 20; Lys29 epsilon-amino acylated with C20DA-gGlu-gGlu-gGlu-gGlu-gGlu-gGlu-eLys; C-terminal amide) [Compound 39] and print it.
output: 119

input: Retrieve EC50, CreLuc reporter, 100% hP measured for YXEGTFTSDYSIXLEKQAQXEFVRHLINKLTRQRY (Aib at 2, 13, 20; Lys29 epsilon-amino acylated with C18DA-gGlu-gGlu-gGlu-gGlu-gGlu-gGlu-eLys; C-terminal amide) [Compound 83] and print it.
output: 31.7

input: Retrieve EC50, CreLuc reporter, 100% hP measured for Y[Aib]EGTFTSDYSI[Aib]LEKQAQ[Aib]AFVRHLINK([γGlu-γGlu-γGlu-γGlu-γGlu-γGlu-C20 diacid])[Aib]TRQRY-NH2 [Compound 3] and print it.
output: 147

input: Retrieve EC50, CreLuc reporter, 100% hP measured for Y[Aib]EGTFTSDYSI[Aib]LEKQAQ[Aib]AFVRHLINK([Ahx-γGlu-γGlu-γGlu-γGlu-γGlu-γGlu-C18 diacid])[Aib]TRQRY-NH2 [Compound 9] and print it.
output: 75.4

input: Retrieve EC50, CreLuc reporter, 100% hP measured for YXEGTFTSDYSIXLEKQAQXAFVRQLINKXTRQRY (Aib at 2, 13, 20, 30; Lys29 epsilon-amino acylated with C18DA-gGlu-gGlu-gGlu-gGlu-gGlu; C-terminal amide) [Compound 50] and print it.
output: 522

input: Retrieve EC50, CreLuc reporter, 100% hP measured for YXEGTFTSDYSIXLEXQAQXAFVRHLINKXTRQRY (Aib at 2, 13, 16, 20, 30; Lys29 epsilon-amino acylated with C18DA-gGlu-gGlu-gGlu-gGlu-gGlu-gGlu-eLys; C-terminal amide) [Compound 5] and print it.
output: 89.4

input: Retrieve EC50, CreLuc reporter, 100% hP measured for YXEGTFTSDYSIXLEKAAQXAFVRHLINKXTRQRY (Aib at 2, 13, 20, 30; Lys29 epsilon-amino acylated with C20DA-gGlu-gGlu-gGlu-gGlu-gGlu-gGlu-eLys; C-terminal amide) [Compound 4] and print it.
output: 194

input: Retrieve EC50, CreLuc reporter, 100% hP measured for YXEGTFTSDYSIXLDKQAQXAFIRHLINKXTRQRY (Aib at 2, 13, 20, 30; Lys29 epsilon-amino acylated with C20DA-gGlu-gGlu-gGlu-gGlu-gGlu-gGlu-eLys; C-terminal amide) [Compound 81] and print it.
output: 52.4

input: Retrieve EC50, CreLuc reporter, 100% hP measured for Y[Aib]EGTFTSDYSI[Aib]LEKQAQ[Aib]AFVRHLINK([γDab-γGlu-γGlu-γGlu-γGlu-γGlu-γGlu-C20 diacid])[Aib]TRQRY-NH2 [Compound 46] and print it.
output: 70.5

input: Retrieve EC50, CreLuc reporter, 100% hP measured for YXEGTFTSDYSIXLEKEAQXAFVRHLINKXTRQRY (Aib at 2, 13, 20, 30; Lys29 epsilon-amino acylated with C20DA-gGlu-gGlu-gGlu-gGlu-gGlu-gGlu-eLys; C-terminal amide) [Compound 28] and print it.
output: 297

input: Retrieve EC50, CreLuc reporter, 100% hP measured for YXEGTFTSDYSIXLEKQAQXAFVRHLINKLTRQRY (Aib at 2, 13, 20; Lys29 epsilon-amino acylated with C20DA-gGlu-gGlu-gGlu-gGlu-gGlu-gGlu-eLys; C-terminal amide) [Compound 27] and print it.
output: 69.1
